system: Klebsiella pneumoniae; experiment: Antibacterial activity against Klebsiella pneumoniae ATCC 11298 after 24 hrs by paper disk diffusion technique; type: functional
property: inhibition zone (IZ) (mm)
Answers are plain numbers, in mm.

O=c1c2cc(Br)cc(Br)c2nc(-c2ccccc2)n1/N=C/C=C/c1ccccc1 : 25
O=c1c2cc(Br)cc(Br)c2nc(-c2ccccc2)n1/N=C/c1cccc([N+](=O)[O-])c1 : 21
Cc1ccc(/C=N/n2c(-c3ccccc3)nc3c(Br)cc(Br)cc3c2=O)cc1 : 19
O=c1c2cc(Br)cc(Br)c2nc(-c2ccccc2)n1/N=C/c1ccccc1O : 22

Ask: // lookup inhibition zone (IZ) | system=Klebsiella pneumoniae | key= "O=c1c2cc(Br)cc(Br)c2nc(-c2ccccc2)n1/N=C/c1ccc(O)cc1"
Result: 27

* * *

Please respond with reported inhibition zone (IZ) for every item in the list.
tested on: Bacillus cereus; experiment: Antibacterial activity against Bacillus cereus ATCC 11778 after 24 hrs by paper disk diffusion technique; assay type: functional
# answer = value followed by unit

COc1cc(/C=N/n2c(-c3ccccc3)nc3c(Br)cc(Br)cc3c2=O)cc(OC)c1OC : 23 mm
O=c1c2cc(Br)cc(Br)c2nc(-c2ccccc2)n1/N=C/c1ccc(O)cc1 : 21 mm
COc1ccc(/C=N/n2c(-c3ccccc3)nc3c(Br)cc(Br)cc3c2=O)cc1 : 19 mm
O=c1c2cc(Br)cc(Br)c2nc(-c2ccccc2)n1/N=C/c1ccc(Cl)cc1 : 19 mm

Ask: For the compound shown here, "O=c1c2cc(Br)cc(Br)c2nc(-c2ccccc2)n1/N=C/c1ccccc1O" , give the reported inhibition zone (IZ).
Result: 21 mm

* * *

test system: Escherichia coli; assay: Antibacterial activity against Escherichia coli ATCC 25922 after 24 hrs by paper disk diffusion technique; assay type: functional
property: inhibition zone (IZ)
# answer = value followed by unit

Record excerpt, results attached:
O=c1c2cc(Br)cc(Br)c2nc(-c2ccccc2)n1/N=C/c1ccccc1 : 17 mm
COc1ccc(/C=N/n2c(-c3ccccc3)nc3c(Br)cc(Br)cc3c2=O)cc1 : 19 mm
COc1cc(/C=N/n2c(-c3ccccc3)nc3c(Br)cc(Br)cc3c2=O)ccc1O : 24 mm
Cc1ccc(/C=N/n2c(-c3ccccc3)nc3c(Br)cc(Br)cc3c2=O)cc1 : 24 mm
O=c1c2cc(Br)cc(Br)c2nc(-c2ccccc2)n1/N=C/C=C/c1ccccc1 : 25 mm
CN(C)c1ccc(/C=N/n2c(-c3ccccc3)nc3c(Br)cc(Br)cc3c2=O)cc1 : 20 mm
O=c1c2cc(Br)cc(Br)c2nc(-c2ccccc2)n1/N=C/c1cccc([N+](=O)[O-])c1 : 26 mm
O=c1c2cc(Br)cc(Br)c2nc(-c2ccccc2)n1/N=C/c1ccccc1O : 22 mm

// next entry
Ask: For the molecule shown here, "O=c1c2cc(Br)cc(Br)c2nc(-c2ccccc2)n1/N=C/c1ccc([N+](=O)[O-])cc1" , give the reported inhibition zone (IZ).
Result: 23 mm

* * *

system: Bacillus cereus; experiment: Antibacterial activity against Bacillus cereus ATCC 11778 after 24 hrs by agar streak dilution method; assay type: functional; conditions: ATCC 11778, 24 h
Note: every record was labeled by where its MIC sits among category 1 (below 20 µg/mL), category 2 (20 µg/mL to below 30 µg/mL), category 3 (30 µg/mL or more)

Below are worked cases with known answers.
Cc1ccc(/C=N/n2c(-c3ccccc3)nc3c(Br)cc(Br)cc3c2=O)cc1 : category 2
O=c1c2cc(Br)cc(Br)c2nc(-c2ccccc2)n1/N=C/c1ccc(O)cc1 : category 1
COc1cc(/C=N/n2c(-c3ccccc3)nc3c(Br)cc(Br)cc3c2=O)ccc1O : category 3
O=c1c2cc(Br)cc(Br)c2nc(-c2ccccc2)n1/N=C/C=C/c1ccccc1 : category 2
COc1ccc(/C=N/n2c(-c3ccccc3)nc3c(Br)cc(Br)cc3c2=O)cc1 : category 3

Ask: Quick check: band for "O=C(O)c1cn(C2CC2)c2cc(N3CCNCC3)c(F)cc2c1=O"
Result: category 1

Ask: Quick check: band for "COc1cc(/C=N/n2c(-c3ccccc3)nc3c(Br)cc(Br)cc3c2=O)cc(OC)c1OC"
Result: category 2

* * *

Please respond with reported inhibition zone (IZ) for every item in the list.
test system: Staphylococcus epidermidis; assay: Antibacterial activity against Staphylococcus epidermidis ATCC 155 after 24 hrs by paper disk diffusion technique; type: functional
Give bare numbers, in mm.

Record excerpt, results attached:
O=c1c2cc(Br)cc(Br)c2nc(-c2ccccc2)n1/N=C/c1ccccc1 : 18
COc1cc(/C=N/n2c(-c3ccccc3)nc3c(Br)cc(Br)cc3c2=O)cc(OC)c1OC : 25
O=c1c2cc(Br)cc(Br)c2nc(-c2ccccc2)n1/N=C/c1ccc([N+](=O)[O-])cc1 : 22

# map each molecule to its inhibition zone (IZ)
1. COc1cc(/C=N/n2c(-c3ccccc3)nc3c(Br)cc(Br)cc3c2=O)ccc1O
2. O=c1c2cc(Br)cc(Br)c2nc(-c2ccccc2)n1/N=C/c1ccccc1O
3. O=c1c2cc(Br)cc(Br)c2nc(-c2ccccc2)n1/N=C/c1cccc([N+](=O)[O-])c1
4. Cc1ccc(/C=N/n2c(-c3ccccc3)nc3c(Br)cc(Br)cc3c2=O)cc1
5. COc1ccc(/C=N/n2c(-c3ccccc3)nc3c(Br)cc(Br)cc3c2=O)cc1
6. CN(C)c1ccc(/C=N/n2c(-c3ccccc3)nc3c(Br)cc(Br)cc3c2=O)cc1

Result:
1. 23
2. 24
3. 22
4. 20
5. 20
6. 25

* * *

test system: Aspergillus niger; test: Antifungal activity against Aspergillus niger ATCC 9029 after 48 hrs by agar streak dilution method; type: functional; conditions: ATCC 9029, 48 h
property: MIC (µg/mL)
Answers are plain numbers, in µg/mL.

Record excerpt, results attached:
COc1ccc(/C=N/n2c(-c3ccccc3)nc3c(Br)cc(Br)cc3c2=O)cc1 : 10.1
COc1cc(/C=N/n2c(-c3ccccc3)nc3c(Br)cc(Br)cc3c2=O)ccc1O : 12.7

# map each compound to its MIC
1. O=c1c2cc(Br)cc(Br)c2nc(-c2ccccc2)n1/N=C/c1ccc([N+](=O)[O-])cc1
2. O=c1c2cc(Br)cc(Br)c2nc(-c2ccccc2)n1/N=C/c1ccccc1

Result:
1: 14.4; 2: 9.7

* * *

system: Bacillus cereus; experiment: Antibacterial activity against Bacillus cereus ATCC 11778 after 24 hrs by agar streak dilution method; format: functional; conditions: ATCC 11778, 24 h
Please respond with reported MIC for every item in the list.

O=c1c2cc(Br)cc(Br)c2nc(-c2ccccc2)n1/N=C/c1ccccc1 : 29.4 µg/mL
CN(C)c1ccc(/C=N/n2c(-c3ccccc3)nc3c(Br)cc(Br)cc3c2=O)cc1 : 30.1 µg/mL

// next entry
Ask: For the compound shown here, "O=c1c2cc(Br)cc(Br)c2nc(-c2ccccc2)n1/N=C/c1ccccc1O" , give the reported MIC.
Result: 19.9 µg/mL
